Would you mind telling me the reported EC50 of each entry?
Test: Inhibition of NS5A in HCV genotype 3a assessed as decrease in viral replication
Report the figure in nM without appending any unit label.

Problem: Reported EC50, compound `CC[C@H]1c2ccc(-c3cnc([C@@H]4CCCN4C(=O)[C@@H](NC(=O)OC)C4CCOCC4)[nH]3)cc2Oc2ccc3cc(-c4cnc([C@@H]5CCCN5C[C@@H](NC(=O)OC)C5CCOCC5)[nH]4)ccc3c21` : ____
Solution: 0.03

Problem: Reported EC50, compound `CCC1(CC)c2ccc(-c3cnc([C@@H]4CCCN4C(=O)[C@@H](NC(=O)OC)C(C)C)[nH]3)cc2Oc2cc3ccc(-c4cnc([C@@H]5CCCN5C(=O)[C@@H](NC(=O)OC)C(C)C)[nH]4)cc3cc21` : ____
Solution: 1.1

Problem: Reported EC50, compound `CC[C@H]1c2ccc(-c3cnc([C@@H]4CCCN4C(=O)[C@@H](NC(=O)OC)C(C)C)[nH]3)cc2Oc2ccc3cc(-c4cnc([C@@H]5CCCN5C(=O)[C@@H](NC(=O)OC)C(C)C)[nH]4)ccc3c21` : ____
Solution: 1.1

Problem: Reported EC50, compound `COC(=O)N[C@H](C(=O)N1CCC[C@H]1c1ncc(-c2ccc3c(c2)Oc2ccc4cc(-c5cnc([C@@H]6CCCN6C[C@@H](NC(=O)OC)C6CCOCC6)[nH]5)ccc4c2[C@@H]3C)[nH]1)C1CCOCC1` : ____
Solution: 0.06

Problem: Reported EC50, compound `CCC1(CC)c2ccc(-c3cnc([C@@H]4CCCN4C(=O)[C@@H](NC(=O)OC)C(C)C)[nH]3)cc2Oc2ccc3cc(-c4cnc([C@@H]5CCCN5C(=O)[C@@H](NC(=O)OC)C(C)C)[nH]4)ccc3c21` : ____
Solution: 0.58
